These entries and their values trace back to patent US20230365679A1.

Listed next: entries and their corresponding EC50.
Target: T1, CD22 on the cell membrane of CD22-positive cell lines (Raji, REH, CA46) (UniProt P20273 20-847, limits assumed)
T1 construct: whole, on cells; Raji and CA46: relatively high expression of CD22; REH: relatively medium expression; also called CD22 on cell membrane
Experiment: FACS on Raji cells

{"BINDER": "mAb-2 (antibody, human IgG1, kappa, V domains shown, Humanized IgG1/kappa antibody; also called V2 HC + V2 LC) VH: EVQLVESGGGLVKPGGSLRLSCAASGFAFSIYDMSWVRQTPEKCLEWVAYISSGGGTTYYPDSVKGRFTISRENAKNSLYLQMNSLKSEDTAMYYCARHSGYGTHWGVLFAYWGQGTMVTVSS VL: DIQMTQSTSTLSASVGDRVTITCRASQDISNYLNWYQQRPDGSVKLLIYYTSILHSGVPSRFSGSGSGTDYTLTISSLQDEDFATYFCQQGNTLPWTFGCGTKVEIKR", "EC50": "0.276 µg/mL"}
{"BINDER": "mAb-1 (antibody, human IgG1, kappa, V domains shown, Reconstructed IgG1/kappa antibody, humanized heavy chain with HA22 light chain; also called V2 HC + HA22 LC) VH: EVQLVESGGGLVKPGGSLRLSCAASGFAFSIYDMSWVRQTPEKCLEWVAYISSGGGTTYYPDSVKGRFTISRENAKNSLYLQMNSLKSEDTAMYYCARHSGYGTHWGVLFAYWGQGTMVTVSS VL: DIQMTQTTSSLSASLGDRVTISCRASQDISNYLNWYQQKPDGTVKLLIYYTSILHSGVPSRFSGSGSGTDYSLTISNLEQEDFATYFCQQGNTLPWTFGCGTKLEIKR", "EC50": "0.152 µg/mL"}
{"BINDER": "mAb-4 (antibody, human IgG1, kappa, V domains shown, Humanized IgG1/kappa antibody; also called V1 HC + V4 LC) VH: EVQLVESGGGLVKPGGSLRLSCAASGFAFSIYDMSWVRQAPGKCLEWVAYISSGGGTTYYPDSVKGRFTISRENAKNSLYLQMNSLKSEDTAMYYCARHSGYGTHWGVLFAYWGQGTMVTVSS VL: DIQMTQSPSTLSASVGDRVTITCRASQDISNYLNWFQQRPGQSPRLLIYYTSILHSGVPSRFSGSGSGTDYTLTISSLQPEDFATYYCQQGNTLPWTFGCGTKVEIKR", "EC50": "0.206 µg/mL"}

With those in mind, consider the next binder.
Using the record for HA22 mAb (antibody, human IgG1, kappa, V domains shown, also called positive antibody HA22 mAb) VH: EVQLVESGGGLVKPGGSLKLSCAASGFAFSIYDMSWVRQTPEKCLEWVAYISSGGGTTYYPDTVKGRFTISRDNAKNTLYLQMSSLKSEDTAMYYCARHSGYGTHWGVLFAYWGQGTLVTVSA VL: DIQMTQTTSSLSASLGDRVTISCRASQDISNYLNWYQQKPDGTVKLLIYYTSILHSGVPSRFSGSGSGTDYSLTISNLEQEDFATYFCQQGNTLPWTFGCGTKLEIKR , report its EC50.
0.152 µg/mL
